Sourced from patent US20110250135A1

# Organ distribution of F-18 signal, liver per record follows
- assayName: Biodistribution: organ distribution of F-18 signal in mice
- Type: in vivo, male NMRI mice
- conditionSummary: liver, 2 min post i.v. injection
I only need the number, in % ID/g, no unit after it.

Here are 3 compounds together with their reported answers.
* O=C(NCC(=O)N1CCN(c2ccc(OCc3ccccc3)cc2)CC1)c1ccc([18F])nc1 [Example 10e] | 7.44
* O=C(NCC(=O)N1CCN(c2ccc(OCc3ccccc3)cc2)CC1)c1cccc(OCC[18F])c1 [Example 3g] | 6.35
* O=C(NCC(=O)N1CCN(c2ccc(OCc3ccccc3)cn2)CC1)c1ccnc([18F])c1 [Example 14f] | 8.19

Prompt: Hello, please tell me recorded Organ distribution of F-18 signal, liver for this one: O=C(NCC(=O)N1CCN(c2ccc(OCc3ccccc3)cc2)CC1)c1ccnc([18F])c1 [Example 11c]
Completion: 7.17

Prompt: Hello, please tell me recorded Organ distribution of F-18 signal, liver for this one: O=C(NCC(=O)N1CCN(c2ccc(OCc3ccccc3)cc2)CC1)c1cccnc1[18F] [Example 12c]
Completion: 5.84
